test system: SK-MEL-5 melanoma; assay: NCI tumour cell line growth inhibition, 48 h
Listed here are molecules together with their documented TGI.

Prompt: Tell us which TGI value is on record for C/C=C1\CC(C(=O)OCC)CCCCCCCCCCC1=O (configuration not stated)
Completion: > 100 µM

Prompt: Tell us which TGI value is on record for Nc1ccc(-c2nc3ccccc3s2)cc1Br
Completion: > 100 µM

Prompt: Tell us which TGI value is on record for O=[N+]([O-])c1ccc2ncccc2c1CCc1c([N+](=O)[O-])ccc2ncccc12
Completion: > 100 µM

Prompt: Tell us which TGI value is on record for O=[N+]([O-])c1cc(Cl)ccc1S(=O)(=O)N1CCCc2cc(Cl)ccc21
Completion: > 100 µM

Prompt: Tell us which TGI value is on record for COc1cc([C@@H]2c3cc4c(cc3C[C@H]3COC(=O)[C@@H]32)OCO4)cc2c1OCO2
Completion: < 0.01 µM

Prompt: Tell us which TGI value is on record for O=C1N[C@@H](COc2ccc(C=Nc3ccc(CCc4ccc(N=Cc5ccc(OC[C@@H]6COC(=O)N6)cc5)cc4)cc3)cc2)CO1
Completion: > 100 µM

Prompt: Tell us which TGI value is on record for C[N+](C)(N)c1nc(N)c(C#N)c(C#N)c1C#N
Completion: > 10 µM

Prompt: Tell us which TGI value is on record for CC(=O)OCC1OC(N2C(S)=C(C#N)C(c3ccco3)C(C(C)=O)=C2c2ccccc2)C(OC(C)=O)C(OC(C)=O)C1OC(C)=O (configuration not stated)
Completion: > 100 µM

Prompt: Tell us which TGI value is on record for CCCn1c(N)c(C(=O)CNc2ccc(I)cc2)c(=O)[nH]c1=O
Completion: > 100 µM
